- assay-summary: Stability Test (storage stability, residual activity by HPLC)
- Type: physicochemical
- protocol-conditions: solid storage, 40° C.; 3 months; HPLC; initial day = 100%
experimental-endpoint: remaining at 2190 h (%)
Dear colleague, please return just the value in %, with no unit written.

Recorded remaining at 2190 h for C[C@@H](O)[C@H]1C(=O)N2C(C(=O)OCOC(=O)C3CCCCC3)=C(SC3CN(C4=NCCS4)C3)[C@H](C)[C@H]12 [Compound (C) (Crystalline), reference compound] , please?
94.2

====

- assay-summary: Stability Test (storage stability, residual activity by HPLC)
- Type: physicochemical
- protocol-conditions: solid storage, 40° C.; 1 month; HPLC; initial day = 100%
experimental-endpoint: remaining at 730 h (%)
I only need the number, in %, no unit after it.

May I ask what remaining at 730 h has been recorded for C[C@@H](O)[C@H]1C(=O)N2C(C(=O)OCOC(=O)C3CCCCC3)=C(SC3CN(C4=NCCS4)C3)[C@H](C)[C@H]12 [Compound (C) (Crystalline), reference compound] ?
98.9
